# Tested on: Mouse C2C12 myoblasts
# protocol_text: C2C12 myoblast differentiation, qPCR of Myog and Tnnt-1 mRNA
# Assay type: cell-based
# measurement_setup: 1 μM, 24 h in DM, C2C12 cells, vs vehicle
# Protocol: Mouse C2C12 myoblasts were propagated in a growth medium (GM) composed of Dulbecco's modified Eagle's medium supplemented with 10% fetal bovine serum (FBS), 50 U/ml penicillin plus 50 μg/ml streptomycin, and 1% L-glutamine (Invitrogen, Milan, Italy), in a humidified atmosphere of 95% air/5% CO2 at 37° C. […] […]. Final preparation of RNA was considered DNA- and protein-free if the ratio between readings at 260/280 nm was >1.7. […]
quantity_measured: Troponin (Tnnt-1) mRNA expression level

1. C=C(C)[C@@H]1CCC(C)=C[C@H]1c1c(O)cc(CCCCC)cc1O = significant increase
2. C=C(C)[C@@H]1CCC(C)=C[C@H]1c1c(O)cc(CCC)cc1O = significant increase
